# systemTested: B-cell receptor CD22 (Homo sapiens)
# Sequence (P20273 whole entry): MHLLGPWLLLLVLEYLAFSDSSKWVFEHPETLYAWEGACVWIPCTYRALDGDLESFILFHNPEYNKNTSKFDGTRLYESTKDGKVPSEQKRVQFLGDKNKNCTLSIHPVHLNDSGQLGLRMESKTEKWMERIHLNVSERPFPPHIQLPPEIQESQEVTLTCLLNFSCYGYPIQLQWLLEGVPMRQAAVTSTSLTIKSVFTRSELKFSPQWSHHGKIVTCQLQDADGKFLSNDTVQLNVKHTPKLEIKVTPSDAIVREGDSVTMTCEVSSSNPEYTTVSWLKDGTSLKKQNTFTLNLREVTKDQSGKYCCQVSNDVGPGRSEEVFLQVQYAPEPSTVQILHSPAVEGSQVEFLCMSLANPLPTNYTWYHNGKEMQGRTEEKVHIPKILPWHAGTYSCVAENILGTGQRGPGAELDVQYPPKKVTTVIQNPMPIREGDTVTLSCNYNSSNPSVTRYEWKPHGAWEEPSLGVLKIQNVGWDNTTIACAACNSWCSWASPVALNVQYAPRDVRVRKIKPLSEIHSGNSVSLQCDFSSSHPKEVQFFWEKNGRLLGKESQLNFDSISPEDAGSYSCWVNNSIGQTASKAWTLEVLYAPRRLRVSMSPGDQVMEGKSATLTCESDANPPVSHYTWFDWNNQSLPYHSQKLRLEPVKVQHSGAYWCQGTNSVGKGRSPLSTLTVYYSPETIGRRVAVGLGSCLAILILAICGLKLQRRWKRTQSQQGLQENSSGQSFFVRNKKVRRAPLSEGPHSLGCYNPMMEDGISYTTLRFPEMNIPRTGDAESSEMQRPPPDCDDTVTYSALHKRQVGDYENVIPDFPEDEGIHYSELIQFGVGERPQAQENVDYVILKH
# procedureText: Binding affinity to recombinant human CD22d1-3-Fc expressed in 293T cells by surface plasmon resonance assay

molecule | Kd
O=C(Cc1ccc(-c2ccc(O)cc2)cc1)NC[C@@H](O)[C@@H](O)[C@@H]1O[C@](C(=O)O)(n2cc(CC3CCCCC3)nn2)C[C@H](O)[C@H]1NC(=O)CO | 766 nM
O=C(Cc1ccc(-c2ccc(O)cc2)cc1)NC[C@@H](O)[C@@H](O)[C@@H]1O[C@](C(=O)O)(n2cc(COC3CCCCC3)nn2)C[C@H](O)[C@H]1NC(=O)CO | 860 nM
O=C(Cc1ccc(-c2ccc(O)cc2)cc1)NC[C@@H](O)[C@@H](O)[C@@H]1O[C@](C(=O)O)(n2cc(-c3ccccc3)nn2)C[C@H](O)[C@H]1NC(=O)CO | 335 nM
C#Cc1ccc(CO[C@]2(C(=O)O)C[C@H](O)[C@@H](NC(=O)CO)[C@H]([C@H](O)[C@H](O)CNC(=O)Cc3ccc(-c4ccc(O)cc4)cc3)O2)cc1 | 628 nM
O=C(Cc1ccc(-c2ccc(O)cc2)cc1)NC[C@@H](O)[C@@H](O)[C@@H]1O[C@](C(=O)O)(n2cc(-c3ccc(-c4ccccc4)cc3)nn2)C[C@H](O)[C@H]1NC(=O)CO | 620 nM
O=C(Cc1ccc(-c2ccc(O)cc2)cc1)NC[C@@H](O)[C@@H](O)[C@@H]1O[C@](C(=O)O)(n2cc(Cc3ccccc3)nn2)C[C@H](O)[C@H]1NC(=O)CO | 952 nM
O=C(Cc1ccc(-c2ccc(O)cc2)cc1)NC[C@@H](O)[C@@H](O)[C@@H]1OC(OCc2ccccc2)(C(=O)O)CC(O)[C@H]1NC(=O)CO (single isomer, unassigned) | 458 nM
O=C(CCCC[C@H]1SC[C@H]2NC(=O)N[C@H]21)NCCOCCOCCOCCn1cc(-c2ccc(CO[C@]3(C(=O)O)C[C@H](O)[C@@H](NC(=O)CO)[C@H]([C@H](O)[C@H](O)CNC(=O)Cc4ccc(-c5ccc(O)cc5)cc4)O3)cc2)nn1 | 740 nM

----------
Recorded Kd values (Myelin-associated glycoprotein (Homo sapiens)) are given below.
testReadout: Kd

compound | result
O=C(Cc1ccc(-c2ccc(O)cc2)cc1)NC[C@@H](O)[C@@H](O)[C@@H]1O[C@](C(=O)O)(n2cc(-c3ccccc3)nn2)C[C@H](O)[C@H]1NC(=O)CO | 30.7 µM
O=C(Cc1ccc(-c2ccc(O)cc2)cc1)NC[C@@H](O)[C@@H](O)[C@@H]1OC(OCc2ccccc2)(C(=O)O)CC(O)[C@H]1NC(=O)CO (single isomer, unassigned) | 56.4 µM
